- experimental system: Hexose transporter 1 (Plasmodium falciparum)
- test: ST_JUDE_LEISH: Cytotoxicity at 2uM final concentration against transgenic Leishmania Mexicana promastigotes LmPfHT that are glucose transport deficient and complemented with the Plasmodium falciparum hexose transporter. Activity is measured by DNA content using SYBR green in vitro
- Format: functional
property measured: inhibition (%)
Your answer should be a plain number; it is taken to be in %.

compound	experimental system	assay result
CN(CCc1ccccc1)c1ncc(-c2cccc(CNCCC3CCCN3C)c2)cn1 (stereo unspecified)	Hexose transporter 1 (Plasmodium falciparum)	67

Req: Kindly state the measured inhibition obtained for `CCN1CCN(c2cc(C)c3cc(NC(=O)c4ccc(Br)o4)ccc3n2)CC1` with Hexose transporter 1 (Plasmodium falciparum).
Resp: 6.62

Req: Kindly state the measured inhibition obtained for `CCN(CCCN1CCCCC1)c1cc(C)nc(Nc2ccc(C)c(C)c2)n1` with Hexose transporter 1 (Plasmodium falciparum).
Resp: 5.75

Req: Kindly state the measured inhibition obtained for CCOc1ccccc1C1C(C(=O)C(C)(C)C)N2c3ccc(Br)cc3C=CC2C12C(=O)c1ccccc1C2=O (stereo unspecified) with Hexose transporter 1 (Plasmodium falciparum).
Resp: 76.5

Req: Kindly state the measured inhibition obtained for `COc1ccccc1Oc1c(N(C)S(=O)(=O)c2ccc(C(C)C)cc2)nc(C(F)(F)F)nc1N(C)S(=O)(=O)c1ccc(C(C)C)cc1` with Hexose transporter 1 (Plasmodium falciparum).
Resp: 1.97

Req: Kindly state the measured inhibition obtained for `CCCNCc1ccc(-c2ccc(CN(Cc3ccc4c(c3)OCO4)C(=O)Cc3cccnc3)cc2)nc1` with Hexose transporter 1 (Plasmodium falciparum).
Resp: 15.2

Req: Kindly state the measured inhibition obtained for `CNCc1cccc2nc(-c3ccc(Cc4cc(Cl)ccc4OCC(C)C)o3)[nH]c12` with Hexose transporter 1 (Plasmodium falciparum).
Resp: 2.61
